Exercise: for every item that follows, state its recorded protein stability index.
B1: NECAB1 (parent)
chain: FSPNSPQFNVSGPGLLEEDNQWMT

# Variants of: B1
# assay-procedure: protein stability index of a GFP-peptide fusion (GPS, HEK-293T) (PSI 1-6); higher = more stable;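 note: lentivirally expressed fusions sorted by FACS into six bins by GFP to DsRed ratio, PSI derived from sequencing read proportions per bin multiplied by bin number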
# measurement-conditions: c terminus: a fixed tail appended
Give bare numbers.

Illustrative cases are given below, each with its answer.
In [3]: df
Out[3]:
   variant_key  recorded_value
0         P13A            3.15
1         E17N            2.33
2         M23P            2.87
3          P3K            3.11
4         G14P            3.17
5          S2Y            3.49

For each of the variants below, state protein stability index.
1. P6M
2. S2N
3. N4A
4. E17M
5. N4R
6. N4K
7. F1I

[2.03, 3.28, 3.25, 2.54, 2.82, 2.98, 4.33]
